Where do these numbers come from? They come from patent US11484561B2.

MEASURED TARGET: α-D-mannosidase (Jack bean) (Canavalia ensiformis)
Construct: purchased Sigma-Aldrich
Sequence (C0HJB3 1-562 limits assumed): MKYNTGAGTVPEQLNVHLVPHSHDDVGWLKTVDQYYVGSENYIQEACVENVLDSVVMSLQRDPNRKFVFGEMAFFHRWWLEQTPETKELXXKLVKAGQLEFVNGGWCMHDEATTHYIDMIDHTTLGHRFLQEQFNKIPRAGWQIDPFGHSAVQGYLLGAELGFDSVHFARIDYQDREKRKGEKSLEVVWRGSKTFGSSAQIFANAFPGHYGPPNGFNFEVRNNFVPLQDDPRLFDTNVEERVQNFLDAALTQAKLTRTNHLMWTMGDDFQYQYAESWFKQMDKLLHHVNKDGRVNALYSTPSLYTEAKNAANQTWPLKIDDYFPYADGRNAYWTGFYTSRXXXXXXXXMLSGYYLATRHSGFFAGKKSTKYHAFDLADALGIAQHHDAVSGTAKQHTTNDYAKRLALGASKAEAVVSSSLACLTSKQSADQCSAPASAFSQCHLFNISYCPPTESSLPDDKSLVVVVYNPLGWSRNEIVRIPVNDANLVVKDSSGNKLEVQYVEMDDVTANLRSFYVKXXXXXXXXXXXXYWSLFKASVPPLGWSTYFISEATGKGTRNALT
PROTOCOL TEXT: Glycosidase assay, α-D-mannosidase (Jack bean)
Type: biochemical
APPLIED CONDITIONS: Table 16; % inhibition; concentration not given
ASSAY ENDPOINT: α-D-mannosidase (Jack bean) (%)

>  <COMPOUND>
O=C(O)CCN1C[C@H](O)[C@@H](O)[C@H](O)[C@H]1CO

>  <RESULT>
40

$$$$
>  <COMPOUND>
O=C(O)CN1C[C@@H](O)[C@H](O)[C@H]1CO

>  <RESULT>
28

$$$$
>  <COMPOUND>
OC[C@H]1NC[C@H](O)[C@@H](O)[C@@H]1O

>  <RESULT>
27

$$$$
>  <COMPOUND>
OC[C@H]1NC[C@@H](O)[C@@H]1O

>  <RESULT>
3

$$$$
>  <COMPOUND>
O=C(O)CN1C[C@H](O)[C@@H](O)[C@H](O)[C@H]1CO

>  <RESULT>
38

$$$$
